Field: Activity. Provide a value for each of the compounds that follow.
STUDY_TARGET: Phosphatidylinositol 4,5-bisphosphate 3-kinase catalytic subunit gamma isoform (Homo sapiens) (UniProt P48736)
Sequence (P48736 whole entry, looked up, canonical isoform): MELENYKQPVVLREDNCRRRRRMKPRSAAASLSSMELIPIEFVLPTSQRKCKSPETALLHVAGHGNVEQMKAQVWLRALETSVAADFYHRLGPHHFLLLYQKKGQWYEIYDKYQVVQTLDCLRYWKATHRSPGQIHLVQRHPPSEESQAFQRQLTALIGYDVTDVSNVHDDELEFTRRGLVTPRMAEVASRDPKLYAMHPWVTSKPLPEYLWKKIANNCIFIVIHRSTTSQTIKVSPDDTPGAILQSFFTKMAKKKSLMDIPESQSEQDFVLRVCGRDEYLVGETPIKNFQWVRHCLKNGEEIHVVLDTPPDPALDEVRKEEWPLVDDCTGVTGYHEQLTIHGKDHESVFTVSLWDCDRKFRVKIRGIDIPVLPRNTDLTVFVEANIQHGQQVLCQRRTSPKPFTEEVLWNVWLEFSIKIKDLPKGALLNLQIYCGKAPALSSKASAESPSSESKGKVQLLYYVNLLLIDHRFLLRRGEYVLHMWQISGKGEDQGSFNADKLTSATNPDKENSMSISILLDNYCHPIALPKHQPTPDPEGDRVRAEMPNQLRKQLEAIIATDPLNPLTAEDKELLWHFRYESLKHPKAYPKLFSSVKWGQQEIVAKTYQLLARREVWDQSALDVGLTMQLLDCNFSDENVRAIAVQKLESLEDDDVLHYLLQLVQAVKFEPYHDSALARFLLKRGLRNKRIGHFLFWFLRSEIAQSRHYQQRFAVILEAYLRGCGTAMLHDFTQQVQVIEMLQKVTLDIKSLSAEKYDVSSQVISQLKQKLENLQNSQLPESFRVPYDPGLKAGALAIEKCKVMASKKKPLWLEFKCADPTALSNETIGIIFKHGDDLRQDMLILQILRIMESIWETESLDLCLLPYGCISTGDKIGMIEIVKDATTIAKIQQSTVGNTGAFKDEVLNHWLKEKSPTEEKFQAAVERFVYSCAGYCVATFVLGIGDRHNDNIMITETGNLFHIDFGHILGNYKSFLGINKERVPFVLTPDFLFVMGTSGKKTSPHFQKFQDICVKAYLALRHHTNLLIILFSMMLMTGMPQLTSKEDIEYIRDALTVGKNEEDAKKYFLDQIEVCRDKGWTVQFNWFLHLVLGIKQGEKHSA
METHOD_DESCRIPTION: Binding affinity to PI3K-gamma (unknown origin) by fluorescence polarization assay
Number in nM, nothing else.

Exam item: Request the reported Activity associated with O=C(Nc1ccncc1)Nc1ccc(-c2nc(N3CCOCC3)nc(N3C4CCC3COC4)n2)cc1
Marked response: 51

Exam item: Request the reported Activity associated with O=C(Nc1ccncc1)Nc1ccc(-c2nc(N3CCOCC3)nc(N3[C@H]4COC[C@@H]3[C@H](O)C4)n2)cc1
Marked response: 50

Exam item: Request the reported Activity associated with O=C(Nc1ccncc1)Nc1ccc(-c2nc(N3CCOCC3)nc(N3C4COCC3C(O)C4)n2)cc1 (racemic)
Marked response: 33

Exam item: Request the reported Activity associated with O=C(Nc1ccncc1)Nc1ccc(-c2nc(N3CCOCC3)nc(N3[C@@H]4COC[C@H]3[C@@H](O)C4)n2)cc1
Marked response: 93

###

Field: AUC(0-inf). Provide a value for each of the compounds that follow.
METHOD_DESCRIPTION: AUC (0 to infinity) in Sprague-Dawley rat at 2 mg/kg, iv administered as bolus dose
Assay type: ADME, organism-based
Design: time infinity, dose 2 mg/kg, route intravenous
PROTOCOL_CONDITIONS: plasma
Number in ng·h/mL, nothing else.

Exam item: Request the reported AUC(0-inf) associated with O=C(Nc1ccncc1)Nc1ccc(-c2nc(N3CCOCC3)nc(N3[C@@H]4COC[C@H]3[C@@H](O)C4)n2)cc1
Marked response: 283

Exam item: Request the reported AUC(0-inf) associated with O=C(Nc1ccncc1)Nc1ccc(-c2nc(N3CCOCC3)nc(N3C4CCC3COC4)n2)cc1
Marked response: 867

Exam item: Request the reported AUC(0-inf) associated with O=C(Nc1ccncc1)Nc1ccc(-c2nc(N3CCOCC3)nc(N3[C@H]4COC[C@@H]3[C@H](O)C4)n2)cc1
Marked response: 315

###

METHOD_DESCRIPTION: Elimination half life in Sprague-Dawley rat at 2 mg/kg, iv administered as bolus dose
Assay type: ADME, organism-based
Parameters: dose 2 mg/kg, route intravenous
PROTOCOL_CONDITIONS: in vivo, read-out: beta t1/2 (converted)
Field: half-life. Provide a value for each of the compounds that follow.

Exam item: Request the reported half-life associated with O=C(Nc1ccncc1)Nc1ccc(-c2nc(N3CCOCC3)nc(N3C4CCC3COC4)n2)cc1
Marked response: 54 min

Exam item: Request the reported half-life associated with O=C(Nc1ccncc1)Nc1ccc(-c2nc(N3CCOCC3)nc(N3[C@@H]4COC[C@H]3[C@@H](O)C4)n2)cc1
Marked response: 12 min

Exam item: Request the reported half-life associated with O=C(Nc1ccncc1)Nc1ccc(-c2nc(N3CCOCC3)nc(N3[C@H]4COC[C@@H]3[C@H](O)C4)n2)cc1
Marked response: 42 min

###

METHOD_DESCRIPTION: Volume of distribution at steady state in Sprague-Dawley rat at 2 mg/kg, iv administered as bolus dose
Format: ADME, organism-based
Design: dose 2 mg/kg, route intravenous
PROTOCOL_CONDITIONS: in vivo, read-out: Vdss
VALUE_TYPE: Vd (L/kg)
Number in L/kg, nothing else.

Exam item: Request the reported Vd associated with O=C(Nc1ccncc1)Nc1ccc(-c2nc(N3CCOCC3)nc(N3[C@@H]4COC[C@H]3[C@@H](O)C4)n2)cc1
Marked response: 0.9

Exam item: Request the reported Vd associated with O=C(Nc1ccncc1)Nc1ccc(-c2nc(N3CCOCC3)nc(N3C4CCC3COC4)n2)cc1 [PKI-179]
Marked response: 2.4

Exam item: Request the reported Vd associated with O=C(Nc1ccncc1)Nc1ccc(-c2nc(N3CCOCC3)nc(N3[C@H]4COC[C@@H]3[C@H](O)C4)n2)cc1
Marked response: 1.5
